tested on: Bovine viral diarrhea virus 1; assay: Antiviral activity against Bovine viral diarrhea virus NADL ATCC VR 534 infected in bovine MDBK cells assessed as protection against virus-induced cytopathic effect after 3 to 4 days by MTT assay; format: functional, organism-based, Bovine viral diarrhea virus 1-NADL; conditions: Bovine viral diarrhea virus isolates and strains, ATCC VR 534, MDBK

{"columns": ["Molecule", "EC50"],
 "data": [
  ["NS(=O)(=O)c1ccc(N2N=C(c3ccccc3)CC2c2cccc(F)c2)cc1 (centres undefined)", "> 20 µM"],
  ["Cc1cccc(C2CC(c3ccc(Oc4ccccc4)cc3)=NN2c2ccc(S(N)(=O)=O)cc2)c1 (centres undefined)", "> 6 µM"],
  ["NS(=O)(=O)c1ccc(N2N=C(c3ccccc3)CC2c2ccccc2Cl)cc1 (centres undefined)", "> 9 µM"],
  ["Cc1ccc(C2CC(c3ccc(Oc4ccccc4)cc3)=NN2c2ccc(S(N)(=O)=O)cc2)cc1 (centres undefined)", "> 21 µM"],
  ["Cc1ccccc1C1CC(c2ccccc2)=NN1c1ccc(S(N)(=O)=O)cc1 (centres undefined)", "> 18 µM"],
  ["NS(=O)(=O)c1ccc(N2N=C(c3ccc(Oc4ccccc4)cc3)CC2c2ccccc2F)cc1 (centres undefined)", "> 36 µM"],
  ["NS(=O)(=O)c1ccc(N2N=C(c3ccc(Oc4ccccc4)cc3)CC2c2ccccc2)cc1 (centres undefined)", "> 5 µM"],
  ["NS(=O)(=O)c1ccc(N2N=C(c3ccc(Oc4ccccc4)cc3)CC2c2ccc(F)cc2)cc1 (centres undefined)", "> 6 µM"],
  ["NS(=O)(=O)c1ccc(N2N=C(c3ccccc3)CC2c2cccc(Cl)c2)cc1 (centres undefined)", "> 2 µM"],
  ["NS(=O)(=O)c1ccc(N2N=C(c3ccc(OCc4ccccc4)cc3)CC2c2cccc(F)c2)cc1 (centres undefined)", "10 µM"],
  ["NS(=O)(=O)c1ccc(N2N=C(c3ccc(OCc4ccccc4)cc3)CC2c2ccccc2)cc1 (centres undefined)", "> 72 µM"],
  ["Cc1ccc(C2CC(c3ccccc3)=NN2c2ccc(S(N)(=O)=O)cc2)cc1 (centres undefined)", "> 32 µM"],
  ["NS(=O)(=O)c1ccc(N2N=C(c3ccc(OCc4ccccc4)cc3)CC2c2ccc(F)cc2)cc1 (centres undefined)", "> 100 µM"],
  ["NS(=O)(=O)c1ccc(N2N=C(c3ccccc3)CC2c2ccc(Cl)cc2)cc1 (centres undefined)", "> 11 µM"],
  ["NS(=O)(=O)c1ccc(N2N=C(c3ccc(Oc4ccccc4)cc3)CC2c2cccc(Cl)c2)cc1 (centres undefined)", "> 6 µM"],
  ["NS(=O)(=O)c1ccc(N2N=C(c3ccc(Oc4ccccc4)cc3)CC2c2ccc(Cl)cc2)cc1 (centres undefined)", "> 19 µM"],
  ["NS(=O)(=O)c1ccc(N2N=C(c3ccc(Oc4ccccc4)cc3)CC2c2cccc(F)c2)cc1 (centres undefined)", "> 12 µM"],
  ["Cc1cccc(C2CC(c3ccccc3)=NN2c2ccc(S(N)(=O)=O)cc2)c1 (centres undefined)", "> 23 µM"],
  ["NC(=O)c1ncn([C@@H]2O[C@H](CO)[C@@H](O)[C@H]2O)n1", "20 µM"]
]}

====

Documented EC50 across a set of compounds
system: Human alphaherpesvirus 1; assay: Antiviral activity against Human herpesvirus 1 KOS ATCC VR 1493 infected in African green monkey Vero 76 cells assessed as protection against virus-induced cytopathic effect after 3 days by crystal violet staining-based plaque reduction assay; type: functional, organism-based; details: Human alphaherpesvirus 1, KOS, Vero 76, 72 h
Recorded Metric: EC50

{"columns": ["Compound", "Recorded Metric", "Result"],
 "data": [
  ["NS(=O)(=O)c1ccc(N2N=C(c3ccc(OCc4ccccc4)cc3)CC2c2cccc(Cl)c2)cc1 (stereo unspecified)", "EC50", "> 85 µM"],
  ["NS(=O)(=O)c1ccc(N2N=C(c3ccc(OCc4ccccc4)cc3)CC2c2ccccc2Cl)cc1 (stereo unspecified)", "EC50", "> 92 µM"],
  ["NS(=O)(=O)c1ccc(N2N=C(c3ccccc3)CC2c2ccccc2F)cc1 (stereo unspecified)", "EC50", "> 28 µM"],
  ["NS(=O)(=O)c1ccc(N2N=C(c3ccccc3)CC2c2ccc(Cl)cc2)cc1 (stereo unspecified)", "EC50", "> 21 µM"],
  ["Cc1ccccc1C1CC(c2ccc(OCc3ccccc3)cc2)=NN1c1ccc(S(N)(=O)=O)cc1 (stereo unspecified)", "EC50", "> 100 µM"],
  ["Cc1cccc(C2CC(c3ccc(Oc4ccccc4)cc3)=NN2c2ccc(S(N)(=O)=O)cc2)c1 (stereo unspecified)", "EC50", "> 81 µM"],
  ["Cc1ccc(C2CC(c3ccccc3)=NN2c2ccc(S(N)(=O)=O)cc2)cc1 (stereo unspecified)", "EC50", "> 20 µM"],
  ["NS(=O)(=O)c1ccc(N2N=C(c3ccc(OCc4ccccc4)cc3)CC2c2ccc(Cl)cc2)cc1 (stereo unspecified)", "EC50", "> 82 µM"],
  ["NS(=O)(=O)c1ccc(N2N=C(c3ccccc3)CC2c2cccc(F)c2)cc1 (stereo unspecified)", "EC50", "> 24 µM"],
  ["NS(=O)(=O)c1ccc(N2N=C(c3ccccc3)CC2c2cccc(Cl)c2)cc1 (stereo unspecified)", "EC50", "> 21 µM"],
  ["NS(=O)(=O)c1ccc(N2N=C(c3ccc(Oc4ccccc4)cc3)CC2c2ccccc2)cc1 (stereo unspecified)", "EC50", "> 85 µM"],
  ["Cc1ccc(C2CC(c3ccc(OCc4ccccc4)cc3)=NN2c2ccc(S(N)(=O)=O)cc2)cc1 (stereo unspecified)", "EC50", "> 100 µM"],
  ["NS(=O)(=O)c1ccc(N2N=C(c3ccc(OCc4ccccc4)cc3)CC2c2cccc(F)c2)cc1 (stereo unspecified)", "EC50", "> 90 µM"],
  ["NS(=O)(=O)c1ccc(N2N=C(c3ccc(OCc4ccccc4)cc3)CC2c2ccccc2)cc1 (stereo unspecified)", "EC50", "> 100 µM"],
  ["NS(=O)(=O)c1ccc(N2N=C(c3ccc(OCc4ccccc4)cc3)CC2c2ccc(F)cc2)cc1 (stereo unspecified)", "EC50", "> 90 µM"],
  ["NS(=O)(=O)c1ccc(N2N=C(c3ccccc3)CC2c2ccc(F)cc2)cc1 (stereo unspecified)", "EC50", "> 23 µM"],
  ["NS(=O)(=O)c1ccc(N2N=C(c3ccc(Oc4ccccc4)cc3)CC2c2ccccc2F)cc1 (stereo unspecified)", "EC50", "> 96 µM"],
  ["NS(=O)(=O)c1ccc(N2N=C(c3ccc(Oc4ccccc4)cc3)CC2c2cccc(Cl)c2)cc1 (stereo unspecified)", "EC50", "> 88 µM"],
  ["Nc1nc2c(ncn2COCCO)c(=O)[nH]1 [ACYCLOVIR]", "EC50", "1.8 µM"],
  ["Cc1ccccc1C1CC(c2ccc(Oc3ccccc3)cc2)=NN1c1ccc(S(N)(=O)=O)cc1 (stereo unspecified)", "EC50", "> 90 µM"],
  ["NS(=O)(=O)c1ccc(N2N=C(c3ccc(Oc4ccccc4)cc3)CC2c2ccccc2Cl)cc1 (stereo unspecified)", "EC50", "> 29 µM"],
  ["Cc1cccc(C2CC(c3ccccc3)=NN2c2ccc(S(N)(=O)=O)cc2)c1 (stereo unspecified)", "EC50", "> 25 µM"],
  ["Cc1ccc(C2CC(c3ccc(Oc4ccccc4)cc3)=NN2c2ccc(S(N)(=O)=O)cc2)cc1 (stereo unspecified)", "EC50", "> 86 µM"],
  ["NS(=O)(=O)c1ccc(N2N=C(c3ccc(OCc4ccccc4)cc3)CC2c2ccccc2F)cc1 (stereo unspecified)", "EC50", "> 100 µM"],
  ["Cc1ccccc1C1CC(c2ccccc2)=NN1c1ccc(S(N)(=O)=O)cc1 (stereo unspecified)", "EC50", "> 24 µM"],
  ["NS(=O)(=O)c1ccc(N2N=C(c3ccccc3)CC2c2ccccc2)cc1 (stereo unspecified)", "EC50", "> 22 µM"],
  ["NS(=O)(=O)c1ccc(N2N=C(c3ccc(Oc4ccccc4)cc3)CC2c2ccc(F)cc2)cc1 (stereo unspecified)", "EC50", "> 25 µM"],
  ["NS(=O)(=O)c1ccc(N2N=C(c3ccc(Oc4ccccc4)cc3)CC2c2ccc(Cl)cc2)cc1 (stereo unspecified)", "EC50", "> 88 µM"],
  ["NS(=O)(=O)c1ccc(N2N=C(c3ccccc3)CC2c2ccccc2Cl)cc1 (stereo unspecified)", "EC50", "> 26 µM"],
  ["NS(=O)(=O)c1ccc(N2N=C(c3ccc(Oc4ccccc4)cc3)CC2c2cccc(F)c2)cc1 (stereo unspecified)", "EC50", "> 28 µM"],
  ["Cc1cccc(C2CC(c3ccc(OCc4ccccc4)cc3)=NN2c2ccc(S(N)(=O)=O)cc2)c1 (stereo unspecified)", "EC50", "> 100 µM"]
]}

====

test: Cytotoxicity against human MT4 cells assessed as decrease in cell viability after 96 hrs by MTT assay; type: cell-based
Documented CC50 at 96 h across a set of molecules
Recorded Metric: CC50 at 96 h

{"columns": ["Molecule", "Result"],
 "data": [
  ["Cc1cccc(C2CC(c3ccccc3)=NN2c2ccc(S(N)(=O)=O)cc2)c1 (stereo unspecified)", "37 µM"],
  ["Cc1cccc(C2CC(c3ccc(Oc4ccccc4)cc3)=NN2c2ccc(S(N)(=O)=O)cc2)c1 (stereo unspecified)", "35 µM"],
  ["NS(=O)(=O)c1ccc(N2N=C(c3ccc(OCc4ccccc4)cc3)CC2c2ccc(Cl)cc2)cc1 (stereo unspecified)", "70 µM"],
  ["NS(=O)(=O)c1ccc(N2N=C(c3ccccc3)CC2c2ccccc2F)cc1 (stereo unspecified)", "42 µM"],
  ["NS(=O)(=O)c1ccc(N2N=C(c3ccc(Oc4ccccc4)cc3)CC2c2ccc(Cl)cc2)cc1 (stereo unspecified)", "9 µM"],
  ["Cc1cccc(C2CC(c3ccc(OCc4ccccc4)cc3)=NN2c2ccc(S(N)(=O)=O)cc2)c1 (stereo unspecified)", "44 µM"],
  ["Cc1ccc(C2CC(c3ccccc3)=NN2c2ccc(S(N)(=O)=O)cc2)cc1 (stereo unspecified)", "40 µM"],
  ["NS(=O)(=O)c1ccc(N2N=C(c3ccc(Oc4ccccc4)cc3)CC2c2ccccc2)cc1 (stereo unspecified)", "42 µM"],
  ["NS(=O)(=O)c1ccc(N2N=C(c3ccc(OCc4ccccc4)cc3)CC2c2ccccc2)cc1 (stereo unspecified)", "> 100 µM"],
  ["Cc1ccccc1C1CC(c2ccccc2)=NN1c1ccc(S(N)(=O)=O)cc1 (stereo unspecified)", "43 µM"],
  ["NS(=O)(=O)c1ccc(N2N=C(c3ccccc3)CC2c2cccc(Cl)c2)cc1 (stereo unspecified)", "41 µM"]
]}

Numbers sourced from ChEMBL document CHEMBL4130485.
